Values compiled from the supplement of paper PMC11732987.

assay-system: UniProt P51784
experimental-protocol: log2 ratio of Biotin-Ahx-Ub-VS probe labelling (fragment/DMSO); higher = less target engagement (more negative = stronger competition), active = hit call of the paper (q ≤ 0.05, log2 ratio ≤ -1)
cond: compound concentration: 200 uM; treatment time: 3 h
Provide the recorded log2 ratio of Biotin-Ahx-Ub-VS probe labelling for the entries that follow.

Guide cases for log2 ratio of Biotin-Ahx-Ub-VS probe labelling, answers given:
{"molecule": "O=C(CCl)N1CCc2ccccc2C(O)C1 (stereo not drawn)", "result-value": "-0.0328 (inactive)"}
{"molecule": "Cc1ccc(C)c(NC(=O)CCl)c1", "result-value": "-0.335 (inactive)"}

Let us move to another entry and its log2 ratio of Biotin-Ahx-Ub-VS probe labelling.
Input: Consider the molecule shown here: Cl.O=C(CCl)NCc1cc2c(nc1O)CCCC2 What is its recorded log2 ratio of Biotin-Ahx-Ub-VS probe labelling?
Output: 0.0791 (inactive)

---

Provide the recorded log2 ratio of Biotin-Ahx-Ub-VS probe labelling for the entries that follow.
assay-system: UniProt O00507
Sequence (O00507 whole entry, the tested form may be a part): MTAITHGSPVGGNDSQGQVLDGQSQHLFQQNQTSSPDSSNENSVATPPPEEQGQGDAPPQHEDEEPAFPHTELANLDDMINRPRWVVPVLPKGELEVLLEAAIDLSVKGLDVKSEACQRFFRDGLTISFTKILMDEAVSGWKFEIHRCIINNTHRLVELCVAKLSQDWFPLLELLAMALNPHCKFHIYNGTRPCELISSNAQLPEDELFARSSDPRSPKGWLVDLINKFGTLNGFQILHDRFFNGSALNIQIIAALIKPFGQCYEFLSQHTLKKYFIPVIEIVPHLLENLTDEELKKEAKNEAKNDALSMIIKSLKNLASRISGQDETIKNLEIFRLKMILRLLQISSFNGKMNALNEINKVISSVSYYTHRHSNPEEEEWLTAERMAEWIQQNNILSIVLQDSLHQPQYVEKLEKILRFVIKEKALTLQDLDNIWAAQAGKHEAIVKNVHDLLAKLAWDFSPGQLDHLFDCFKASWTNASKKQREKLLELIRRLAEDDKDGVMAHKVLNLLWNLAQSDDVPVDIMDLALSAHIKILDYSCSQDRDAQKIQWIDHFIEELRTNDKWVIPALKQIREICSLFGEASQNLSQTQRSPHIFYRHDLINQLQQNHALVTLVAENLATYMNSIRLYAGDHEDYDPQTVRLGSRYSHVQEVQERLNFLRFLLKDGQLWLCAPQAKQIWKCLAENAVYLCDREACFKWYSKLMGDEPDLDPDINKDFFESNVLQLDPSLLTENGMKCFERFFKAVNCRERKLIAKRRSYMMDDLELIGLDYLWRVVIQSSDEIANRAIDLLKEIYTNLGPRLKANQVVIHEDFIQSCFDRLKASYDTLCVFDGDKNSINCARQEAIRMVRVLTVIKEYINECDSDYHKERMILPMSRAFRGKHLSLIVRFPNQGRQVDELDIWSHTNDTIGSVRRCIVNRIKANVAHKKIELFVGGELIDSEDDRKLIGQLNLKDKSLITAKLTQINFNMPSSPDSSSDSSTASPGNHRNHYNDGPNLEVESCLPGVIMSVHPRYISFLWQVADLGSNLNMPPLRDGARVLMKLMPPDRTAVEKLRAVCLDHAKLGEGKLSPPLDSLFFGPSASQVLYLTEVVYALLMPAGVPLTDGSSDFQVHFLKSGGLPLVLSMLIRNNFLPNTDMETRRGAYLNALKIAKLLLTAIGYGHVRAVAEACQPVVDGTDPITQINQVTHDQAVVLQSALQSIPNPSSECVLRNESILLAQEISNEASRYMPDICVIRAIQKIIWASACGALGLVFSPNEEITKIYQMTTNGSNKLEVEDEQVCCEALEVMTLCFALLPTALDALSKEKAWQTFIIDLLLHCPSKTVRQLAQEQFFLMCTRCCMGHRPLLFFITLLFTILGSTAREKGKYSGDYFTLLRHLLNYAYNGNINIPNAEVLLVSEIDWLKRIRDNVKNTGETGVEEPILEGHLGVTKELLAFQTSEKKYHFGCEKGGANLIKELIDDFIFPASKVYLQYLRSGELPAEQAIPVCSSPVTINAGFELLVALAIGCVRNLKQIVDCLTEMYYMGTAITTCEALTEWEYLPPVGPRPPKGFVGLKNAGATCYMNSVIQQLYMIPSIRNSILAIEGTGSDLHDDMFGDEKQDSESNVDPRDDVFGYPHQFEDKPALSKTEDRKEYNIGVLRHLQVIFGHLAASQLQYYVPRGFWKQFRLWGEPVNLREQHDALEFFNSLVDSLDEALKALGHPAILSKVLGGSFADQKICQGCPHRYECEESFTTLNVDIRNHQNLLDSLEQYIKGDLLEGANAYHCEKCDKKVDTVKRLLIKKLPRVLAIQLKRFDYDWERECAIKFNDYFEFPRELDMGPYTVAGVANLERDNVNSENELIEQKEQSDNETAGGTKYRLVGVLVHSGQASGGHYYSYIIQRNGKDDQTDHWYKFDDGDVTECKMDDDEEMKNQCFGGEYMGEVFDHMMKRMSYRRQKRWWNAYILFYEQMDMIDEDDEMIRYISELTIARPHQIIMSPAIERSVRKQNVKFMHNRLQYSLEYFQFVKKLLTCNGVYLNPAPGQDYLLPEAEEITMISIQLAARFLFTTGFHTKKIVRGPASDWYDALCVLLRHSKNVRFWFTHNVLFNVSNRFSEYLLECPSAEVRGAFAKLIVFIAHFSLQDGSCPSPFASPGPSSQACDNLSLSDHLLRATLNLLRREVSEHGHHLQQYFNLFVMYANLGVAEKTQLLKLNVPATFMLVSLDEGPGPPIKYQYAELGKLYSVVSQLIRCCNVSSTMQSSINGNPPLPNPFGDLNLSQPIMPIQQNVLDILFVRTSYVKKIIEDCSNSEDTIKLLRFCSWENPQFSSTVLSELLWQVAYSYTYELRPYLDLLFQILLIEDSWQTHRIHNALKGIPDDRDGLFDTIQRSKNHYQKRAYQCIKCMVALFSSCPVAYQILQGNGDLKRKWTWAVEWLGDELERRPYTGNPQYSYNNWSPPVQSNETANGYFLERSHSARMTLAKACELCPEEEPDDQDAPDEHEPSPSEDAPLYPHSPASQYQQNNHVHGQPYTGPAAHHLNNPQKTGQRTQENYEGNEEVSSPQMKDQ
experimental-protocol: log2 ratio of Biotin-Ahx-Ub-VS probe labelling (fragment/DMSO); higher = less target engagement (more negative = stronger competition), active = hit call of the paper (q ≤ 0.05, log2 ratio ≤ -1)
cond: compound concentration: 200 uM; treatment time: 3 h

Guide cases for log2 ratio of Biotin-Ahx-Ub-VS probe labelling, answers given:
{"compound": "CC(NC(=O)CCl)c1cccc2ccccc12 (stereo not given)", "result-value": "0.0439 (inactive)"}
{"compound": "Cl.O=C(CCl)N1CCn2cncc2C1", "result-value": "-0.138 (inactive)"}

Would you mind giving log2 ratio of Biotin-Ahx-Ub-VS probe labelling for every compound in the list below?
1. Cc1ccc(CN(CCO)C(=O)CCl)cc1
2. CCN(C(=O)CCl)C1CCCCC1
3. COCC1C=CCCN1C(=O)CCl (stereo not given)
4. Cl.Cn1c(CNC(=O)CCl)nc2cccnc21
5. O=C(CCl)N1CCOC2(CCC2)CC1

Output:
1: -0.468 (inactive); 2: 0.476 (inactive); 3: -0.284 (inactive); 4: -0.348 (inactive); 5: -0.268 (inactive)

---

assay-system: ALG13 (UniProt Q9NP73)
Sequence (Q9NP73 whole entry, the tested form may be a part): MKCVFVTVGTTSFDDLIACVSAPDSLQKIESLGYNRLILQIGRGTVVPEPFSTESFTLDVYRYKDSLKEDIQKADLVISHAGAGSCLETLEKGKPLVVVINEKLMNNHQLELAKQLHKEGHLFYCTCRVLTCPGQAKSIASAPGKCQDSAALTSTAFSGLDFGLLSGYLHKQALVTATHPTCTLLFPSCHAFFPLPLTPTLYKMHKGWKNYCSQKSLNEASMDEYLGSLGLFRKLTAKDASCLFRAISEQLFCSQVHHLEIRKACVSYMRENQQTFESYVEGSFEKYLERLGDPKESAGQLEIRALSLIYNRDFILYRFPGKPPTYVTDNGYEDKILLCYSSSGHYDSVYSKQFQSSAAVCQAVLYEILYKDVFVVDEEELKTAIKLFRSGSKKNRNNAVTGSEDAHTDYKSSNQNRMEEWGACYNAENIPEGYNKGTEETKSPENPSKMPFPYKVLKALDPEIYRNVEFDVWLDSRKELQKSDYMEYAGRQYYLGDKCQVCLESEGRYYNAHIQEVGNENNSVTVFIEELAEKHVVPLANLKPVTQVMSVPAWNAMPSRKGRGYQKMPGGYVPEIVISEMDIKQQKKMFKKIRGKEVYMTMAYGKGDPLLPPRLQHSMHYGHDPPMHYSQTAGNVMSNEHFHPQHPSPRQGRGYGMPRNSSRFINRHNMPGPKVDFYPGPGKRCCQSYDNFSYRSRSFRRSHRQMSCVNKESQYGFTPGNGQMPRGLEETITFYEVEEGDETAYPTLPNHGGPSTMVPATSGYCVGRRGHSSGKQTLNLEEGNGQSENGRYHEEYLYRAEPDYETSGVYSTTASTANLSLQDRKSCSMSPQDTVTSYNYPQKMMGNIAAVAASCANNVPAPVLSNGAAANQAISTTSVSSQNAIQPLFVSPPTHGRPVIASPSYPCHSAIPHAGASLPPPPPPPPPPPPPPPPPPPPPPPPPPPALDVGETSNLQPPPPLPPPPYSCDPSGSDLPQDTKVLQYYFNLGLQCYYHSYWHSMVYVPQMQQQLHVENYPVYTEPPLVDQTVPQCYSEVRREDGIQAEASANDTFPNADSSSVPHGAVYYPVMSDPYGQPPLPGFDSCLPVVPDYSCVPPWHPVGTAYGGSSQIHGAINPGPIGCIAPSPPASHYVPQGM
experimental-protocol: log2 ratio of Biotin-Ahx-Ub-VS probe labelling (fragment/DMSO); higher = less target engagement (more negative = stronger competition), active = hit call of the paper (q ≤ 0.05, log2 ratio ≤ -1)
cond: compound concentration: 200 uM; treatment time: 3 h
Provide the recorded log2 ratio of Biotin-Ahx-Ub-VS probe labelling for the entries that follow.

{"compound": "CCN(Cc1ccc(C#N)cc1F)C(=O)CCl", "assay-system": "ALG13 (UniProt Q9NP73)", "result-value": "0.0792 (inactive)"}

Would you mind giving log2 ratio of Biotin-Ahx-Ub-VS probe labelling for every compound in the list below?
1. Cl.O=C(CCl)NCCc1ncc(F)cc1F
2. O=C(CCl)Nc1ccccc1C(F)(F)F
3. CC(NC(=O)CCl)c1csc(-c2ccccc2)n1.Cl (configuration not stated)
4. NC(=O)C1CCCN(C(=O)CCl)C1 (configuration not stated)
5. CCN(C(=O)CCl)C1CCS(=O)(=O)C1 (configuration not stated)

Output:
1: 0.103 (inactive); 2: 0.259 (inactive); 3: 0.0117 (inactive); 4: 0.0966 (inactive); 5: -0.231 (inactive)

Input: Consider the compound shown here: O=C(CCl)NCc1ccc(N2CCOCC2)nc1 What is its recorded log2 ratio of Biotin-Ahx-Ub-VS probe labelling?
Output: 0.174 (inactive)

---

assay-system: BAP1 (UniProt Q92560)
experimental-protocol: log2 ratio of Biotin-Ahx-Ub-VS probe labelling (fragment/DMSO); higher = less target engagement (more negative = stronger competition), active = hit call of the paper (q ≤ 0.05, log2 ratio ≤ -1)
cond: compound concentration: 200 uM; treatment time: 3 h
Select the correct class. Options are active, inactive and nothing else.

{"compound": "O=C(CCl)N1CCC(c2ccn[nH]2)C1 (stereo not given)", "assay-system": "BAP1 (UniProt Q92560)", "assigned-class": "inactive"}
{"compound": "Cc1nc(CN2CCN(C(=O)CCl)CC2)cs1", "assay-system": "BAP1 (UniProt Q92560)", "assigned-class": "inactive"}
{"compound": "O=C(CCl)N1CCCN(C(=O)c2ccc(Cl)cc2)CC1", "assay-system": "BAP1 (UniProt Q92560)", "assigned-class": "inactive"}
{"compound": "N#Cc1ccc(Cl)cc1NC(=O)CCl", "assay-system": "BAP1 (UniProt Q92560)", "assigned-class": "active"}

As a next step, examine the compound that follows.
Input: What outcome does the record of this test show for O=C(CCl)N1CCOC(c2cccc(F)c2)C1 (stereo not given) ?
Output: active

---

assay-system: UCHL5 (UniProt Q9Y5K5)
experimental-protocol: log2 ratio of Biotin-Ahx-Ub-VS probe labelling (fragment/DMSO); higher = less target engagement (more negative = stronger competition), active = hit call of the paper (q ≤ 0.05, log2 ratio ≤ -1)
cond: compound concentration: 200 uM; treatment time: 3 h
Label 1.0 when log2 ratio of Biotin-Ahx-Ub-VS probe labelling is at or above -0.2; otherwise label 0.0.

Examples with answers:
{"molecule": "O=C(CCl)Nc1ccc(F)cc1Cl", "assigned-class": 0.0}
{"molecule": "O=C(CCl)N1CCN(C(=O)N2CCCCC2)CC1", "assigned-class": 0.0}
{"molecule": "O=C(CCl)Nc1ccccc1C(F)(F)F", "assigned-class": 0.0}
{"molecule": "Cc1ccc(N(CCC#N)C(=O)CCl)cc1C", "assigned-class": 1.0}

Input: Identify whether the reported log2 ratio of Biotin-Ahx-Ub-VS probe labelling of the following molecule is -0.2 or greater: Cl.Cn1c(CNC(=O)CCl)nc2cccnc21
Output: 0.0

Input: Identify whether the reported log2 ratio of Biotin-Ahx-Ub-VS probe labelling of the following molecule is -0.2 or greater: Cl.O=C(CCl)NC1(c2ncccn2)CCC1
Output: 1.0

---

assay-system: UniProt O00487
experimental-protocol: log2 ratio of Biotin-Ahx-Ub-VS probe labelling (fragment/DMSO); higher = less target engagement (more negative = stronger competition), active = hit call of the paper (q ≤ 0.05, log2 ratio ≤ -1)
cond: compound concentration: 200 uM; treatment time: 3 h
observation-type: log2 ratio of Biotin-Ahx-Ub-VS probe labelling
Give bare numbers.

Guide cases for log2 ratio of Biotin-Ahx-Ub-VS probe labelling, answers given:
{"molecule": "COc1ccc(-c2csc(NC(=O)CCl)n2)cc1", "result-value": -0.101}
{"molecule": "Cc1ccc(CN(C)C(=O)CCl)o1", "result-value": -0.0611}
{"molecule": "Cc1cc(Cl)ccc1NC(=O)CCl", "result-value": -0.165}
{"molecule": "Cl.O=C(CCl)N1CCc2ncncc2C1", "result-value": -0.0759}
{"molecule": "O=C(CCl)N1CCN2C(=O)CCC2C1 (stereo not given)", "result-value": -0.0865}

Would you mind giving log2 ratio of Biotin-Ahx-Ub-VS probe labelling for every molecule in the list below?
1. Cc1ccc2nnc(CNC(=O)CCl)n2c1
2. O=C(CCl)N(C1CCCC1)C1CCS(=O)(=O)C1 (stereo not given)
3. Cl.O=C(CCl)N1CCCC(c2ncc[nH]2)C1 (stereo not given)
4. O=C(CCl)Nc1cc2c(cc1Cl)OCCO2

Output:
1: -0.0931; 2: -0.119; 3: -0.0974; 4: -0.0671

---

assay-system: VCPIP1 (UniProt Q96JH7)
Sequence (Q96JH7 whole entry, the tested form may be a part): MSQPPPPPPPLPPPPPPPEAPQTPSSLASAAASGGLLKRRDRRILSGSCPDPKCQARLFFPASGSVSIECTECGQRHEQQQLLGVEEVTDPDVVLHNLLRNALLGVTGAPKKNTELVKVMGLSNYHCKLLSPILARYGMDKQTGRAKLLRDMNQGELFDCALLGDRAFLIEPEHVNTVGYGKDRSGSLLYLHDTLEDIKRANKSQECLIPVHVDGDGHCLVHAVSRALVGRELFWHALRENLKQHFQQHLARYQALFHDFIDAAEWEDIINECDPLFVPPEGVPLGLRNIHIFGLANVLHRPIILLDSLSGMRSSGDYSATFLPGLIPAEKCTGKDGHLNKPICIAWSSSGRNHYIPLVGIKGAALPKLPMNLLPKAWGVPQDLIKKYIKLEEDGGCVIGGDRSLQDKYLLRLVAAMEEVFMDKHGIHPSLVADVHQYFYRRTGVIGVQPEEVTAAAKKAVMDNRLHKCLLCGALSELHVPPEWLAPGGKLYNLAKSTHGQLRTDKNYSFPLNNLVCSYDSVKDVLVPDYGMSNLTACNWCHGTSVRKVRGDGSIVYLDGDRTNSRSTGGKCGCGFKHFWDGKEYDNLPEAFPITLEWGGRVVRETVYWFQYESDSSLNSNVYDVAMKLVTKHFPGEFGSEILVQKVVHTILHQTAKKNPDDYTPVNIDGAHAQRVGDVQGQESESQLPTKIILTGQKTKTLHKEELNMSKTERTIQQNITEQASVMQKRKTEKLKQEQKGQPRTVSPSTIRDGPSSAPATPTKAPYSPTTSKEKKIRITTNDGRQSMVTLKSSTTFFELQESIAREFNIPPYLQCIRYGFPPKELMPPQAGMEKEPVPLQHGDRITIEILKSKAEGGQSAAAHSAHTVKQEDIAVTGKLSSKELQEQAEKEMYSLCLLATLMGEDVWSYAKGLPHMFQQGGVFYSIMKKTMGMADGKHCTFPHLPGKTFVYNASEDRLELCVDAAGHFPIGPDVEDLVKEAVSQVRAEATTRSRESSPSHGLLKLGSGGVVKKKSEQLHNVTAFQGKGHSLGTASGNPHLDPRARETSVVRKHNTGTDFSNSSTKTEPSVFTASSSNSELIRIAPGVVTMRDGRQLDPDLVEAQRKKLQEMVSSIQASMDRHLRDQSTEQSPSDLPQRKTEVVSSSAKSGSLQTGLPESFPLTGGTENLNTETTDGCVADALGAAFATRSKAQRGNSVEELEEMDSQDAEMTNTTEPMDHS
experimental-protocol: log2 ratio of Biotin-Ahx-Ub-VS probe labelling (fragment/DMSO); higher = less target engagement (more negative = stronger competition), active = hit call of the paper (q ≤ 0.05, log2 ratio ≤ -1)
cond: compound concentration: 200 uM; treatment time: 3 h
Select the correct class. Options are y for active, n for inactive and nothing else.

Examples with answers:
{"compound": "COc1ccc(-c2csc(NC(=O)CCl)n2)cc1", "assigned-class": "y"}
{"compound": "N#Cc1ccc(CNC(=O)CCl)cc1", "assigned-class": "y"}
{"compound": "CNC(=O)Cn1cc(NC(=O)CCl)cn1", "assigned-class": "n"}

Input: What outcome does the record of this test show for O=C(CCl)N1CCC(O)(Cc2ccc(F)cc2)C1 (stereo not given) ?
Output: y

Input: What outcome does the record of this test show for O=C(CCl)N1CCOCCC1c1ccccc1 (stereo not given) ?
Output: n

Input: What outcome does the record of this test show for Cc1ccc(CNC(=O)CCl)nc1C.Cl ?
Output: y

Input: What outcome does the record of this test show for O=C(CCl)NCc1ccc(N2CCOCC2)nc1 ?
Output: y

Input: What outcome does the record of this test show for N#Cc1ccccc1N1CCN(C(=O)CCl)CC1 ?
Output: y

Input: What outcome does the record of this test show for CCC1c2ccsc2CCN1C(=O)CCl (stereo not given) ?
Output: n

Input: What outcome does the record of this test show for O=C(CCl)Nc1ccc(N2CCCC2=O)cc1 ?
Output: y

Input: What outcome does the record of this test show for CC1Cc2ccccc2N1C(=O)CCl (stereo not given) ?
Output: y

Input: What outcome does the record of this test show for Cc1cc(C(=O)NC2CCN(C(=O)CCl)CC2)no1 ?
Output: n

Input: What outcome does the record of this test show for Cc1ccn2cc(CNC(=O)CCl)nc2c1.Cl ?
Output: n

Input: What outcome does the record of this test show for Cc1c(NC(=O)CCl)c(=O)n(-c2ccccc2)n1C ?
Output: n

Input: What outcome does the record of this test show for O=C(CCl)NC1CCC(C(F)(F)F)CC1 (stereo not given) ?
Output: y

Input: What outcome does the record of this test show for Cc1ccc(N(CCC#N)C(=O)CCl)cc1C ?
Output: y
